Numbers sourced from patent US20230265208A1.

- MEASURED ON: MUC1 on HCT116/MUC1 cells (human, UniProt P15941 24-1255)
- Sequence (P15941 24-1097, chain 1 of 2): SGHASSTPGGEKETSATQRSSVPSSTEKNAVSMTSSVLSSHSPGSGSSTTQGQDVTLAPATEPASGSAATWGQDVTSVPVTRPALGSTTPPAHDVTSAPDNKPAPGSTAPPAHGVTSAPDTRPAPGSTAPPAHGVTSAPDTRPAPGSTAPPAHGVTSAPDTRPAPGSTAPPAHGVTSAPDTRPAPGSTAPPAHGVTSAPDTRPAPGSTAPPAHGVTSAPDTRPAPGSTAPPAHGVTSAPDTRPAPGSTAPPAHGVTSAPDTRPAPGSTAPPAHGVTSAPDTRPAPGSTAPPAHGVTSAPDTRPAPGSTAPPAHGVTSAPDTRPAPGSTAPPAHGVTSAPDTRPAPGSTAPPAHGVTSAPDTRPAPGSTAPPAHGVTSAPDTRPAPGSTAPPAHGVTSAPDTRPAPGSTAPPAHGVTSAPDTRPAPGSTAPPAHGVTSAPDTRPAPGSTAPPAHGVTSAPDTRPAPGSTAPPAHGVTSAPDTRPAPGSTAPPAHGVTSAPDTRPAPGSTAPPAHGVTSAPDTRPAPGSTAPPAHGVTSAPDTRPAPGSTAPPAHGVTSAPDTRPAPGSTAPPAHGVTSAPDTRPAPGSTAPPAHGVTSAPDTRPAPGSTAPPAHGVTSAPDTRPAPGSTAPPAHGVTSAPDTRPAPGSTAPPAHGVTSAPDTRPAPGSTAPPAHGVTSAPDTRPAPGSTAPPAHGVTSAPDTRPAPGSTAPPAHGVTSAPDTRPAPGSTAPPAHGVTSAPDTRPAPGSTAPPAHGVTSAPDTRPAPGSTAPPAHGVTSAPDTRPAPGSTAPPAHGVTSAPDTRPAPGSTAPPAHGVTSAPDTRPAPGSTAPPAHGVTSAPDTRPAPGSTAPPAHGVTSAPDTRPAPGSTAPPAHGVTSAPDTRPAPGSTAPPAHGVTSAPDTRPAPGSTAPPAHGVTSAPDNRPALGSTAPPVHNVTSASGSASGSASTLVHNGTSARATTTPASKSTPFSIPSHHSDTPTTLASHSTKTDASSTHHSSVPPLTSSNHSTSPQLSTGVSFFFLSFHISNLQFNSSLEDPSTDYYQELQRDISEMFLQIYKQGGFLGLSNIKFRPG
- Sequence (P15941 1098-1255, chain 2 of 2): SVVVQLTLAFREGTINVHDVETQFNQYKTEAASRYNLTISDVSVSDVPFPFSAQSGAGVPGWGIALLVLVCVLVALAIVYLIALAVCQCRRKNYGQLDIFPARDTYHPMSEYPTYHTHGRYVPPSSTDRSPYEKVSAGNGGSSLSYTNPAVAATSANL
- MEASUREMENT PROTOCOL: flow cytometry on HCT116/MUC1 cells; antibody at 0.015242 nM
MEASUREMENT NAME: FACS titration signal
// no unit, no text: just the number

Prompt: Could you share which FACS titration signal value was measured for VH2 + VL3 (antibody, V domains shown) VH: QVQLVQSGAEVKKPGASVKVSCKASGYAFSNFWMNWVRQAPGQGLEWMGQIYPGDGDTNYNGKFKGRVTMTRDTSTSTVYMELSSLRSEDTAVYYCARSYYRSAWFAYWGQGTLVTVSS VL: EIVLTQSPATLSLSPGERATLSCRASQSIGTSIHWYQQKPGQAPRLLIYYASESISGIPARFSGSGSGTDFTLTISSLEPEDFAVYYCQQSNNWPLTFGGGTKVEIK ?
Response: 8.96

Prompt: Consider next the binder VH1 + VL3 (antibody, V domains shown) VH: QVQLVQSGAEVKKPGSSVKVSCKASGYAFSNFWMNWVRQAPGQGLEWMGQIYPGDGDTNYNGKFKGRVTITADKSTSTAYMELSSLRSEDTAVYYCARSYYRSAWFAYWGQGTLVTVSS VL: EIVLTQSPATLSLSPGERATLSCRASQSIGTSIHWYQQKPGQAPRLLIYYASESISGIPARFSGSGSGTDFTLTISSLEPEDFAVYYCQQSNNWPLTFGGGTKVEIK in the same way.
Response: 5.76

Prompt: Another binder to check: VH1 + VL4 (antibody, V domains shown) VH: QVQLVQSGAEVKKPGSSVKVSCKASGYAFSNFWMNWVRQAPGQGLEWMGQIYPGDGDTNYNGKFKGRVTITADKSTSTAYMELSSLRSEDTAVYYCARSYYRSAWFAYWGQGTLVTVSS VL: AIQLTQSPSSLSASVGDRVTITCRASQSIGTSIHWYQQKPGKAPKLLIYYASESISGVPSRFSGSGSGTDFTLTISSLQPEDFATYYCQQSNNWPLTFGGGTKVEIK
Response: 5.73

Prompt: Let us now turn to VH5 + VL2 (antibody, V domains shown) VH: EVQLVQSGAEVKKPGESLKISCKGSGYAFSNFWMNWVRQMPGKGLEWMGQIYPGDGDTNYNGKFKGQVTISADKSISTAYLQWSSLKASDTAMYYCARSYYRSAWFAYWGQGTLVTVSL VL: EIVMTQSPATLSVSPGERATLSCRASQSIGTSIHWYQQKPGQAPRLLIYYASESISGIPARFSGSGSGTEFTLTISSLQSEDFAVYYCQQSNNWPLTFGGGTKVEIK
Response: 5.88
